Molecular target: Nuclear receptor subfamily 1 group I member 3 (Homo sapiens) (UniProt Q14994)
Sequence (Q14994 whole entry, looked up): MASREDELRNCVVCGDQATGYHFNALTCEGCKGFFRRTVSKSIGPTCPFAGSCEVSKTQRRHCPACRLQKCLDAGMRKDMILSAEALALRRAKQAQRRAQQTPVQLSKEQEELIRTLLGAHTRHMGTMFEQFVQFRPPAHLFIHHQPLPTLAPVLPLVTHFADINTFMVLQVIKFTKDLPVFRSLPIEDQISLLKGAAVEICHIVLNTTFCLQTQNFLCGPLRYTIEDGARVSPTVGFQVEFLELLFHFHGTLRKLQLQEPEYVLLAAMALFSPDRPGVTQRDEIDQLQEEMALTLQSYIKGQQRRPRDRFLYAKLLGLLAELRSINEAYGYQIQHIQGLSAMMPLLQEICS
Assay: qHTS assay to identify small molecule agonists of the constitutive androstane receptor (CAR) signaling pathway (AID 1224839); further: nearly all actives have a fitted effect of over 15% in size;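 on activation: HepG2 cells stably carrying human CAR and a CYP2B6 luciferase reporter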
Settings: HepG2 hCAR CYP2B6-luciferase, agonist mode, 24 h; series mostly up to 92.4 µM
Source text: National Center for Advancing Translational Sciences [NCATS] NIH Chemical Genomics Center [NCGC] U.S. Environmental Protection Agency [EPA] National Institutes of Environmental Health Sciences [NIEHS] National Toxicology Program [NTP] […] Assay Protocol Summary: A double-stable (hCAR and CYP2B6-2.2kb) transfected cell line, derived from human hepatoma (HepG2) cells, was utilized for the duration of the quantitative high-throughput screens. […]
Results filed as inconclusive are left out. Active and inactive are the calls of the source. The call rests on the fitted dose curve; in most records, active means well fitted activation curve with a large enough effect in the repeat runs; inconclusive means weak or mixed curves; inactive means no such curve, though single readings can be large or run the other way.
The categories you may choose from are T = active, F = inactive

# count of solved cases: 6
O=C(Nc1ccc2[nH]ccc2c1)c1cc2cc(F)ccc2n1Cc1cccc(F)c1 ... T
CCCCCCCCCCCCCCCCCCn1cc[n+](C)c1 ... F
c1ccc(OCC2CO2)cc1 (stereo not given) ... F
CCCCOCN(C(=O)CCl)c1c(CC)cccc1CC ... T
O=C/C(Cl)=C(/Cl)C(=O)O ... F
CCCSP(=O)(OCC)SCCC ... T

Please state the recorded outcome for this compound: COc1cc(C=O)cc2c1[C@H](COC(N)=O)[C@]1(OC(C)=O)ON2C[C@H]2[C@@H]1N2C(C)=O F

Which outcome did this test record for the compound c1ccc2cc3c(cc2c1)-c1cccc2cccc-3c12 ? T

// outcome(item) with item = C[C@@H]1O[C@@H](O[C@H]2C[C@@H](O)[C@]3(CO)[C@H]4[C@H](O)C[C@]5(C)[C@@H](C6=CC(=O)OC6)CC[C@]5(O)[C@@H]4CC[C@]3(O)C2)[C@H](O)[C@H](O)[C@H]1O F

What classification did Oc1c(Cl)c(Cl)cc(Cl)c1Cl end up with in this test? F
